B1: S100A14 (parent)
chain: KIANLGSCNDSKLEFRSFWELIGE

# Variants of: B1
# Test: protein stability index of a GFP-peptide fusion (GPS, HEK-293T) (PSI 1-6); higher = more stable;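 also: lentivirally expressed fusions sorted by FACS into six bins by GFP to DsRed ratio, PSI derived from sequencing read proportions per bin multiplied by bin number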
# Test Context: c terminus: a fixed tail appended

>  <Variant Description>
K1L

>  <protein stability index>
1.15

$$$$
>  <Variant Description>
A3Y

>  <protein stability index>
1.79

$$$$
>  <Variant Description>
A3K

>  <protein stability index>
1.53

$$$$
>  <Variant Description>
N9Y

>  <protein stability index>
1.91

$$$$
>  <Variant Description>
N4P

>  <protein stability index>
1.83

$$$$
>  <Variant Description>
C8D

>  <protein stability index>
2.63

$$$$
>  <Variant Description>
I22Q

>  <protein stability index>
2.24

$$$$
>  <Variant Description>
G23Y

>  <protein stability index>
1.75

$$$$
>  <Variant Description>
D10M

>  <protein stability index>
2.85

$$$$
>  <Variant Description>
G6L

>  <protein stability index>
3.46

$$$$
>  <Variant Description>
E24N

>  <protein stability index>
2.17

$$$$

Source: the supplement of paper PMC10567573
